biological target: T1, mouse programmed cell death protein 1 Fc fusion protein (mPD-1-Fc), mPD-1 C60S (aa 25-167) (Mus musculus, UniProt Q02242, stabilised); test: SPR; Carterra LSA; Fab from the ammonium sulfate precipitate of the culture supernatant immobilised on a NiHC200M chip; hPD-1 (1-1024 nM) or mPD-1-Fc (4-1024 nM) as analyte, fourfold dilution series, no regeneration; HBS-EP pH 7.4, 25 °C; medians over the spots of a construct, KD = koff/kon; conditions: one partner purified
T1 construct: not cleaved; source: Expi293F, purified (Protein A, SEC; dimeric fraction); not shown: Fc (human), C-terminal, kept
Listing: Kd of selected binders

binder	result
toripalimab Fab H.T106A (Fab, V domains shown, heavy chain of Sm3 with this change; numbers count from the chain's first residue; as the light chain of Sm3; source: Brevibacillus, culture supernatant (ammonium sulfate precipitate); not shown: 6xHis, C-terminal, kept; 6xHN, C-terminal, kept) VH: QGQLVQSGAEVKKPGASVKVSCKASGYTFTDYEMHWVRQAPIHGLEWIGVIESETGGTAYNQKFKGRVTITADKSTSTAYMELSSLRSEDTAVYYCAREGITTVAATYYWYFDVWGQGTTVTVSS VL: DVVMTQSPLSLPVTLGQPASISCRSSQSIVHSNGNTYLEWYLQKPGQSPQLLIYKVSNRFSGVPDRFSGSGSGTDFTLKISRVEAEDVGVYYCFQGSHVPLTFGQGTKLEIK	107 nM

Next binder, please.
Challenge: Identify the reported Kd for the following entry. toripalimab Fab L.L101I (Fab, V domains shown, as the heavy chain of Sm3; light chain of Sm3 with this change; numbers count from the chain's first residue; source: Brevibacillus, culture supernatant (ammonium sulfate precipitate); not shown: 6xHis, C-terminal, kept; 6xHN, C-terminal, kept) VH: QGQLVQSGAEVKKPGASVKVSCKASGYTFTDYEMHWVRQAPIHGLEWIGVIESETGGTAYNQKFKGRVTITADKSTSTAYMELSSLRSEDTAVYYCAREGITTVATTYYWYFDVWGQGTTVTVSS VL: DVVMTQSPLSLPVTLGQPASISCRSSQSIVHSNGNTYLEWYLQKPGQSPQLLIYKVSNRFSGVPDRFSGSGSGTDFTLKISRVEAEDVGVYYCFQGSHVPITFGQGTKLEIK
Response given: 34.3 nM

Reference source for all entries: paper PMC10663500
